Kd by entry:
molecular target: mCTLA-4-Fc (R&D Systems) (mouse, UniProt P09793 36-162); test: SPR, Fc fusion captured via anti-human IgG Fc
Sequence (P09793 whole entry, the tested form may be a part): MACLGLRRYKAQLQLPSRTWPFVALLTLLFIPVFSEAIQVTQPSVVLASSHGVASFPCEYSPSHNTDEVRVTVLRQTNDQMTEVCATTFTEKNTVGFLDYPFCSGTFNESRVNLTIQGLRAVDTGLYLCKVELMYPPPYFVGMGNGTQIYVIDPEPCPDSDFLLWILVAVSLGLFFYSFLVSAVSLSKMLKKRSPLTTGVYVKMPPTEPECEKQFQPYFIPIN
assay.endpoint: Kd (nM)

>>> value_measured("hNGAL mutein S106.3-K20 (designed binder) QDSTSDLIPAPPLSKVPLQQNFQDNQFHGKWYVVGLAGNRILRDDQHPMNMYATIYELKEDKSYNVTSVIFPHKKCEYTIATFVPGSQPGEFTLGNIKSYGDKTSYLVRVVSTNYNQHAVVFFQLVEDNAGFFAITIYGRTKELASELKENFIRFSKSLGLPENHIVFPVPIDQCIDGSAWSHPQF")
300
>>> value_measured("hNGAL mutein S94.2-F05 (designed binder) QDSTSDLIPAPPLSKVPLQQNFQDNQFHGKWYVVGLAGNRILRDDQHPMNMYATIYELKEDKSYNVTSVIFPHKKCEYTIATFVPGSQPGEFTLGNIKSYGDKTSYLVRVVSTNYNQYAMVFFKLAEDNAEFFAVTIYGRTKELASELKENFIRFSKSLGLPENHIVFPVPIDQCIDGSAWSHPQF")
65
>>> value_measured("hNGAL mutein S67.2-F03 (designed binder) QDSTSDLIPAPPLSKVPLQQNFQDNQFHGKWYVVGLAGNRILRDDQHPMNMYATIYELKEDKSYNVTSVIFPHKKCEYTIATFVPGSQPGEFTLGNIKSYGDKTSYLVRVVSTNYNQHAMVFFKLVEDNAEFFAITIYGRTKELASELKENFIRFSKSLGLPENHIVFPVPIDQCIDGSAWSHPQF")
198
>>> value_measured("hNGAL mutein S106.3-O19 (designed binder) QDSTSDLIPAPPLSKVPLQQNFQDNQFHGKWYVVGLAGNRILRDDQHPMNMYATIYELKEDKSYNVTSVIFPHKKCEHTIATFVPGSQPGEFTLGNIKSYGDKTSYLVRVVSTDYNQHAMVFFELVEDNAGFFAITIYGRTKELASELKENFIRFSKSLGLPENHIVFPVPIDQCIDGSAWSHPQF")
135
>>> value_measured("hNGAL mutein S106.1-N15 (designed binder) QDSTSDLIPAPPLSKVPLQQNFQDNQFHGKWYVLGLAGNRILRDDQHPMNMYATIYELKEDKSYNVTSVIFPHKKCEYTIATFVPGSQPGEFTLGNIKSYGDKTSYLVRVVSTNYNQHAMVFFKLAEDNAEFFAITIYGRTKELASELKENFIRFSKSLGLPENHIVFPVPIDQCIDGSAWSHPQF")
110
>>> value_measured("hNGAL mutein S94.7-Q13 (designed binder, also called CTLA-4-Q13) QDSTSDLIPAPPLSKVPLQQNFQDNQFHGKWYVVGLAGNRILRDDQHPMNMYATIYELKEDKSYNVTSVIFPHKKCEYTIATFVPGSQPGEFTLGNIKSYGDKTSYLVRVVSTNYNQHATVFFKLAEDNAEFFAITIYGRTKELASELKENFIRFSKSLGLPENHIVFPVPIDQCIDGSAWSHPQF")
39.5
>>> value_measured("hNGAL mutein S109.6-J11 (designed binder) QDSTSDLIPAPPLSKVPLQQNFQDNQFHGKWYVVGLAGNRILRDDQHPMNMYATIYELKEDKSYNVTSVIFPHKKCEYTFATFVPGSQPGEFTLGNIKSYGDKTSYLVRVVSTNYNQHATVFFKLAEDNAEFFAVTIYGRTKELASELKENFIRFSKSLGLPENHIVFPVPIDQCIDGSAWSHPQF")
47
>>> value_measured("hNGAL mutein S67.3-C21 (designed binder) QDSTSDLIPAPPLSKVPLQQNFQDNQFHGKWYVVGLAGNYIWRNDRYPMQMYATIYELKEDKSYNVTSVIFDTKKCEYPIATFVPGSQPGEFTLGNIKSYRMDTSYLVRVVSTNYNQHAMVFFKQVNHNTEHFAITIYGRTKELASELKENFIRFSKSLGLPENHIVFPVPIDQCIDGSAWSHPQF")
6800
